test system: Jump-In™ T-REx™ CHO-K1 BLA cells; experiment: Tetracycline beta-lactamase reporter gene assay (counterscreen); type: cell-based; details: read-out: Counterscreen EC50 (μM) (2% FBS) 16 H; 2% FBS, 16 H
Starred links: 1 amine or outer side, 2 acyl side, 3 side chain; linkers in the order of their positions; H or OH if unused. Positions of bridges follow the written chain, without caps; N, C: chain ends. Non-standard residues stand in square brackets, D forms with d. Residues, ends and D or L forms follow the SMILES beside them. ξ: configuration not given here. dPhe(4-CF3) = N[C@H](Cc1ccc(C(F)(F)F)cc1)C(=O)O; dTrp(6-F) = N[C@H](Cc1c[nH]c2cc(F)ccc12)C(=O)O; ξPhe(4-CF3) = NC(Cc1ccc(C(F)(F)F)cc1)C(=O)O; X1 = C[C@](CCCCC=[*:3])(N[*:1])C(=O)[*:2]; S8 = C=CCCCCCC[C@](C)(N)C(=O)O; R5 = C=CCCC[C@@](C)(N)C(=O)O; S5 = C=CCCC[C@](C)(N)C(=O)O
As shown below, each of these compounds has a reported EC50 value.
TEST READOUT: EC50

COMPOUND	TGT	ENDPOINT RESULT
CC(C)C[C@@H](NC(=O)[C@@H](CC(C)C)NC(=O)[C@@]1(C)CCCC/C=C\CCC[C@@](C)(NC(=O)[C@@H](Cc2ccc(O)cc2)NC(=O)[C@@H](Cc2c[nH]c3cc(F)ccc23)NC(=O)[C@@H](C)NC(=O)[C@H](N)[C@H](C)O)C(=O)N[C@H](CC(N)=O)C(=O)N[C@H](Cc2ccc(C(F)(F)F)cc2)C(=O)N[C@H](CCC(=O)O)C(=O)N1)C(=O)N[C@H](CCCNC(=N)N)C(N)=O [^DPMI-δ (5-9)] (H-[dT][dA][dTrp(6-F)][dY][R5][dN][dPhe(4-CF3)][dE][X1][dL][dL][dR]-NH2; staple (Z) 5-9)	Jump-In™ T-REx™ CHO-K1 BLA cells	47 µM
CC(C)C[C@@H](NC(=O)[C@@H](CC(C)C)NC(=O)[C@@]1(C)CCC/C=C\CCCCCC[C@](C)(NC(=O)[C@H](N)[C@H](C)O)C(=O)N[C@H](Cc2c[nH]c3cc(F)ccc23)C(=O)N[C@H](Cc2ccc(O)cc2)C(=O)N[C@H](C)C(=O)N[C@H](CC(N)=O)C(=O)NC(Cc2ccc(C(F)(F)F)cc2)C(=O)N[C@H](CCC(=O)O)C(=O)N1)C(=O)N[C@H](CCCNC(=N)N)C(N)=O (stereo partly drawn) [^DPMI-(2-9)] (H-[dT][S8][dTrp(6-F)][dY][dA][dN][ξPhe(4-CF3)][dE][R5][dL][dL][dR]-NH2; staple (Z) 2-9)	Jump-In™ T-REx™ CHO-K1 BLA cells	≥ 50 µM
CC(C)C[C@H]1NC(=O)[C@@H](CCCCN)NC(=O)[C@@H](CCC(=O)O)NC(=O)[C@@H](Cc2ccc(C(F)(F)F)cc2)NC(=O)[C@@H](CC(N)=O)NC(=O)[C@]2(CCC/C=C\CCCCCC[C@](C)(C(N)=O)NC(=O)[C@@H](CC(C)C)NC1=O)CCC/C=C\CCC[C@@](C)(N)C(=O)N[C@H](C)C(=O)N[C@H](Cc1c[nH]c3cc(F)ccc13)C(=O)N[C@H](Cc1ccc(O)cc1)C(=O)N2	Jump-In™ T-REx™ CHO-K1 BLA cells	≥ 50 µM
CC(=O)N[C@@H](CC(C)C)C(=O)N[C@H](C(=O)N[C@@H](Cc1ccccc1)C(=O)N[C@]1(C)CCCCCCC=CCCC[C@@](C)(C(=O)N[C@@H](CO)C(=O)N[C@@H](C)C(=O)N[C@@H](C)C(N)=O)NC(=O)[C@H](CC2CCC2)NC(=O)[C@H](CCC(N)=O)NC(=O)[C@H](C)NC(=O)[C@H](Cc2c[nH]c3ccccc23)NC(=O)[C@H](Cc2ccc(O)cc2)NC(=O)[C@H](CCC(=O)O)NC1=O)[C@@H](C)O [ATSP-7041, reference compound]	Jump-In™ T-REx™ CHO-K1 BLA cells	≥ 50 µM
CC(C)C[C@@H](NC(=O)[C@@H](CC(C)C)NC(=O)[C@@H](CCCCN)NC(=O)[C@@H](CCC(=O)O)NC(=O)[C@@H](Cc1ccc(C(F)(F)F)cc1)NC(=O)[C@@H](CC(N)=O)NC(=O)[C@@]1(C)CCCCCC/C=C\CCC[C@@](C)(N)C(=O)N[C@H](C)C(=O)N[C@H](Cc2c[nH]c3cc(F)ccc23)C(=O)N[C@H](Cc2ccc(O)cc2)C(=O)N1)C(=O)N[C@H](CCCNC(=N)N)C(N)=O	Jump-In™ T-REx™ CHO-K1 BLA cells	≥ 50 µM
CC(C)C[C@H]1NC(=O)[C@@H](CC(C)C)NC(=O)[C@@](C)(NC(=O)[C@@H](CCC(=O)O)NC(=O)[C@@H](Cc2ccc(C(F)(F)F)cc2)NC(=O)[C@@H](CC(N)=O)NC(=O)[C@@]2(C)CCC/C=C\CCC[C@@](C)(N)C(=O)N[C@H](C)C(=O)N[C@H](Cc3c[nH]c4cc(F)ccc34)C(=O)N[C@H](Cc3ccc(O)cc3)C(=O)N2)CCC/C=C\CCC[C@](C)(C(N)=O)NC1=O [^DPMI-δ (1-5,9-12)] (H-[R5][dA][dTrp(6-F)][dY][R5][dN][dPhe(4-CF3)][dE][S5][dL][dL][R5]-NH2; staple (Z) 1-5, 9-12)	Jump-In™ T-REx™ CHO-K1 BLA cells	≥ 50 µM

* * *

target: MDM2 (Homo sapiens, UniProt Q00987); construct: GST (N); His6 (N); made in house; host or cells: E. coli BL21 (DE3) Rosetta T1R; test: Surface plasmon resonance (SPR) binding to MDM2; details: Table 1; MDM2
Sequence (Q00987 1-125): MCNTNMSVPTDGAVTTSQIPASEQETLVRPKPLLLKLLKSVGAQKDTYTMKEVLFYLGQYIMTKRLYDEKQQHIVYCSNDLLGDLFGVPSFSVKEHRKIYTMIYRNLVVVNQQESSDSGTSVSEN
pKd: −log10 of the molar value. Positions of bridges follow the written chain, without caps; N, C: chain ends. Non-standard residues stand in square brackets, D forms with d. Residues, ends and D or L forms follow the SMILES beside them. dPhe(4-CF3) = N[C@H](Cc1ccc(C(F)(F)F)cc1)C(=O)O; dTrp(6-F) = N[C@H](Cc1c[nH]c2cc(F)ccc12)C(=O)O; R5 = C=CCCC[C@@](C)(N)C(=O)O; S5 = C=CCCC[C@](C)(N)C(=O)O

COMPOUND	pKd
CC(C)C[C@H]1NC(=O)[C@@H](CC(C)C)NC(=O)[C@@](C)(NC(=O)[C@@H](CCC(=O)O)NC(=O)[C@@H](Cc2ccc(C(F)(F)F)cc2)NC(=O)[C@@H](CC(N)=O)NC(=O)[C@@]2(C)CCC/C=C\CCC[C@@](C)(N)C(=O)N[C@H](C)C(=O)N[C@H](Cc3c[nH]c4cc(F)ccc34)C(=O)N[C@H](Cc3ccc(O)cc3)C(=O)N2)CCC/C=C\CCC[C@](C)(C(N)=O)NC1=O [^DPMI-δ (1-5,9-12)] (H-[R5][dA][dTrp(6-F)][dY][R5][dN][dPhe(4-CF3)][dE][S5][dL][dL][R5]-NH2; staple (Z) 1-5, 9-12)	> 9.00
